Give measured Kd for each item. Keep answers brief.
Biological target: T1, MBP-fused PDZ domain of MAST2 (human, UniProt Q6P0Q8 1104-1192)
T1 sequence (looked up): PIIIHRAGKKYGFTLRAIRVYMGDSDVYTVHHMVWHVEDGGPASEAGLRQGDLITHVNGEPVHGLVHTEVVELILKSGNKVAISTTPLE
Assay: fluorescence polarisation
Where no end group is shown, it is not given here.
Provide the reading as a plain figure in µM.

Input line: Any idea what its Kd is? The binder is KLPSTTL (peptide, UniProt Q15418 729-735, looked up, also: fluorescein labeled, site not given here) [fluorescein labeled RSK1 729-735 peptide, unphosphorylated]
Output line: 7.9

Input line: Lookup KLPSTTL (peptide, UniProt Q15418 729-735, looked up, phosphorylated; fluorescein labeled) [fluorescein labeled RSK1 729-735 peptide, phosphorylated]
Output line: 13
